Sourced from ChEMBL document CHEMBL1201862

Quick record: GI50, HCT-15.

Examples with answers:
# COMPOUND, GI50
rows = [
    ("Oc1cccc(-c2cn3cc(C(F)(F)F)ccc3n2)c1", "29.2 µM"),
    ("COC(=O)N/N=C(\\C)C(CN1CCCCC1)C(C1=C(O)c2ccccc2OC1)c1ccccc1 (stereo not drawn)", "> 100 µM"),
    ("ONc1ncnc2[nH]cnc12", "> 100 µM"),
    ("O=Nn1c2ccccc2c2cc([N+](=O)[O-])ccc21", "22.3 µM"),
    ("CN(C)CCCNc1ccnc2cc([N+](=O)[O-])ccc12", "12.1 µM"),
]

Answer for every listed entry: what is its GI50? The entries follow.
1. CCc1cn2c(/C=N/N=C(N)N)c(-c3cc(C)c(Cl)cc3Cl)nc2s1
2. O=[N+]([O-])c1ccc2[nH]ncc2c1Cl
3. O=[N+]([O-])c1cccnc1S(=O)(=O)c1ccccc1
4. O=C(O)Cn1c(=O)[nH]c(=O)c2[nH]cnc21
5. O=C(Nc1ccn(CCI)c(=O)n1)c1ccccc1
6. CC(C)OP(=S)(NC(=S)c1ccccc1)OC(C)C
7. CCOC(=O)C1=C(C)NC(=O)N([N+](=O)[O-])C1c1ccccc1C(F)(F)F (stereo not drawn)
8. CN/C(=N\N)NS(=O)(=O)c1cc(C)c(Cl)cc1S

1. 1.62 µM
2. 23.3 µM
3. 7.55 µM
4. > 100 µM
5. > 100 µM
6. > 100 µM
7. 55.2 µM
8. 48.2 µM

Answer for every listed entry: what is its GI50? The entries follow.
1. COc1ccc(NCc2cc(OC)c(OC)c(OC)c2)cc1
2. CCOC(=O)Cc1cnc(NC(NC(=O)CC)(C(F)(F)F)C(F)(F)F)s1

0.18 µM
> 100 µM

Answer for every listed entry: what is its GI50? The entries follow.
1. CN1CCN(C(=S)N(C)C(=O)c2ccco2)CC1
2. O=C(c1ccccn1)c1nc(-c2ccc(Cl)c(Cl)c2)nc2ccc(Cl)cc12
3. CCOC(=O)C(O)(NC(=O)c1ccccc1F)C(F)(F)F (stereo not drawn)

1: > 100 µM; 2: 39.2 µM; 3: > 100 µM
